# System: mice
# METHOD NOTES: Neurotoxicity in mice, rotorod ataxia test
# RECORDED CONDITIONS: mice i.p.; rotorod ataxia test
Counter-ions that a name gives are not always drawn.
Can you tell me MICE TD50 for the items I'm about to list?

Query c1ccc2c(c1)CCC2NC1CCc2ccccc21 (racemic) [Compound 43, (rac)-N,N-Di-(1-indanyl)amine.HCl] yields MICE TD50 of <100 mg/kg

Query NC(=O)CNC1CCc2ccc(F)cc21 (racemic) yields MICE TD50 of >300 mg/kg

Query COc1ccc2c(c1)C(N)CC2 (racemic) [Compound 25, (rac)-6-Methoxy-1-aminoindan.HCl] yields MICE TD50 of >100 mg/kg

Query NC1Cc2ccccc21 (centres unmarked) [Compound 27, 1-Aminobenzocyclobutene.HCl] yields MICE TD50 of >100 mg/kg

Query Cc1cccc2c1C(N)CC2 (racemic) [Compound 28, (rac)-7-Methyl-1-aminoindan.HCl] yields MICE TD50 of <100 mg/kg

Query NC(=O)CN[C@H]1CCc2ccccc21 [Compound 2, (S)-N-(2-Acetamido)-1-aminoindan.HCl] yields MICE TD50 of 137 mg/kg

Query NC1CCc2ccc(O)cc21 (racemic) [Compound 34, (rac)-6-Hydroxy-1-aminoindan.HCl] yields MICE TD50 of >300 mg/kg

Query CN[C@H]1CCc2ccccc21.Cl [Compound 14, (S)-N-Methyl-1-aminoindan.HCl] yields MICE TD50 of 100 mg/kg

====

# METHOD NOTES: Neurotoxicity in rats, positional sense test and gait stance test
# RECORDED CONDITIONS: rat, in vivo, po
REPORTED METRIC: TD50

Query CC(=O)NC1CCc2ccc(F)cc21 (racemic) [Compound 22, (rac)-6-Fluoro-N-acetyl-1-aminoindan] yields TD50 of > 50 mg/kg

====

# Test system: mice
# METHOD NOTES: Neurotoxicity in mice, rotorod ataxia test
# RECORDED CONDITIONS: mice i.p.; rotorod ataxia test
Counter-ions that a name gives are not always drawn.
Can you tell me MICE TD50 for the items I'm about to list?

Query C[C@H]1Cc2ccccc2[C@H]1N (racemic) [Compound 40, (rac)-cis-2-Methyl-1-aminoindan.HCl] yields MICE TD50 of <100 mg/kg

Query Cc1ccc2c(c1)CCC2N (racemic) [Compound 38, (rac)-5-Methyl-1-aminoindan.HCl] yields MICE TD50 of <100 mg/kg

Query C[C@@H]1Cc2ccccc2[C@H]1N (racemic) [Compound 39, (rac)-trans-2-Methyl-1-aminoindan.HCl] yields MICE TD50 of <100 mg/kg

Query COc1ccc2c(c1OC)CCC2N (racemic) [Compound 31, (rac)-4,5-Dimethoxy-1-aminoindan.HCl] yields MICE TD50 of <100 mg/kg

Query CN(C)C1CCc2ccccc21 (racemic) [Compound 15, (rac)-N,N-Dimethyl-1-aminoindan.HCl] yields MICE TD50 of <100 mg/kg

Query NC(=O)CN[C@@H]1CCc2ccccc21 [Compound 1, (R)-N-(2-Acetamido)-1-aminoindan.HCl] yields MICE TD50 of 198 mg/kg

====

# Tested on: rats
# METHOD NOTES: Neurotoxicity in rats, positional sense test and gait stance test
# RECORDED CONDITIONS: rats p.o.; positional sense test and gait stance test
Structures can show the parent of a compound that is named as a salt.
REPORTED METRIC: RATS TD50

Query NC(=O)CN[C@H]1CCc2ccccc21 [Compound 2, (S)-N-(2-Acetamido)-1-aminoindan.HCl] yields RATS TD50 of >500 mg/kg

Query C[C@H]1Cc2ccccc2[C@H]1N (racemic) [Compound 40, (rac)-cis-2-Methyl-1-aminoindan.HCl] yields RATS TD50 of >50 mg/kg

Query CN[C@H]1CCc2ccccc21.Cl [Compound 14, (S)-N-Methyl-1-aminoindan.HCl] yields RATS TD50 of >142 mg/kg

Query CN(C)C1CCc2ccccc21 (racemic) [Compound 15, (rac)-N,N-Dimethyl-1-aminoindan.HCl] yields RATS TD50 of >50 mg/kg

Query c1ccc2c(c1)CCC2NC1CCc2ccccc21 (racemic) [Compound 43, (rac)-N,N-Di-(1-indanyl)amine.HCl] yields RATS TD50 of >50 mg/kg

Query COc1ccc2c(c1OC)CCC2N (racemic) [Compound 31, (rac)-4,5-Dimethoxy-1-aminoindan.HCl] yields RATS TD50 of >50 mg/kg

Query Cc1ccc2c(c1)CCC2N (racemic) [Compound 38, (rac)-5-Methyl-1-aminoindan.HCl] yields RATS TD50 of >50 mg/kg
